Form field: PBM binding z-score (one value per entry).
# System: PPARg homodimer (NR concentration 180 nM)
# assay procedure: PBM binding z-score (relative to random genomic background probes); higher = stronger binding; sequences stand for … in GC…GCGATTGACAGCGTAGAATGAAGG

- seq: "GCTGCTAGGTCAGGTTGGTCAGCTACCGGGTACG"
  PBM binding z-score: 0.811
- seq: "TTACCAAGGTGAAGATCGTTGATCCCTCTGTAGA"
  PBM binding z-score: 0.177
- seq: "CATACAGGGTCAGCTAGGCCATAGTAGGGACGGC"
  PBM binding z-score: 1.7
- seq: "CCTAGTTGGTCAAGGTGACACACGCTATAGGTAC"
  PBM binding z-score: 1.46
- seq: "TCATATAGGTAATGGTGAAAGTCGAACGATATGA"
  PBM binding z-score: 0.415
- seq: "GGAACGAGGGCAAACTTGATAGCATCTGTCGACG"
  PBM binding z-score: 0.366
- seq: "CTCGAAAGCTCGTGCTCAGGTGAGTATACCAAAC"
  PBM binding z-score: -0.882
- seq: "CGAGACAGGTGAAAGGTAACTCAGTCTGGTACGC"
  PBM binding z-score: 1.05
- seq: "AGTCAAACTTCACTAGGTAACGTAAGATTCAGCT"
  PBM binding z-score: 0.579
- seq: "TGAGACAGGTGAAGGTAACTCAGGTACGCAGTCG"
  PBM binding z-score: 0.0963
- seq: "CGTCCAAGGTCAGCAGGTCCGTGAAAGCGACGTG"
  PBM binding z-score: 1.99
- seq: "TTAGACAGGTGAAGGTAACTCAGGTACGCAGTCG"
  PBM binding z-score: 0.811
- seq: "TAGACTAGGTCATTCAGGGGCCAGTATAGAAAGC"
  PBM binding z-score: 2.65
- seq: "CCAGACTGGTGAAAGGTAACTCAGTCTGGTACGC"
  PBM binding z-score: 0.201
- seq: "GCAGACAGGTGAAACGCTGGTAACTCAGGGTGGC"
  PBM binding z-score: -1.22
- seq: "CCTACTGGGCCAAGATCATTGATCAGTCAAAGCA"
  PBM binding z-score: -0.385
- seq: "ACAATTAGTTGACTTAGGGCAACCGATACGACGC"
  PBM binding z-score: 0.921
- seq: "AGCTCTAGGTAAAGTTCAGTGAAAGATCGATAGA"
  PBM binding z-score: 0.759
- seq: "AGAATGAGGATATACGTAGATCAGGGAAGAAAGT"
  PBM binding z-score: 0.0264
- seq: "ATACCAAGGTGATCGTGAGGTTGTTGATACTAAC"
  PBM binding z-score: 0.541
- seq: "CCTAGTTGGTCAGGAGGTCACACAACGGATATGA"
  PBM binding z-score: 3.64
- seq: "ATCGAAAGATCGAAGGTGAGTATACCCACCCGAA"
  PBM binding z-score: -0.0886
- seq: "AGAGACAGGTGATGAAGGTAACTCAGGCTATCAT"
  PBM binding z-score: 0.847
- seq: "GCTATTAGTTGAAAAGGCAACCGAATGATTCTCG"
  PBM binding z-score: 1.02
- seq: "CCGTGTAGGTTATGGGGCATTCAGGCAACGGTGA"
  PBM binding z-score: 1.42
- seq: "CCTTACGGGTCACGAGGTTACAGCACGACGAGCG"
  PBM binding z-score: 5.5
- seq: "ATCTATAGGTAACAAGTTCAGTGAAAGAGAGGAC"
  PBM binding z-score: 1.15
- seq: "CCTCGGAGGACAGAAGGTCAGAGGTGTCCGCTTT"
  PBM binding z-score: 0.853
- seq: "GATACAGCGTCAGCTAGAGGCCAGAGTATGGAAA"
  PBM binding z-score: -1.09
- seq: "TCATGTAGATCAAAGGTTAAGAAAGCCGAAGCCT"
  PBM binding z-score: 1.17
- seq: "CGAACTAGGTCAGAATAGGACAGTGAAGGATGAT"
  PBM binding z-score: 0.535
